- subject_of_test: human Kv1.1 (human) (UniProt Q09470)
- Sequence (Q09470 whole entry): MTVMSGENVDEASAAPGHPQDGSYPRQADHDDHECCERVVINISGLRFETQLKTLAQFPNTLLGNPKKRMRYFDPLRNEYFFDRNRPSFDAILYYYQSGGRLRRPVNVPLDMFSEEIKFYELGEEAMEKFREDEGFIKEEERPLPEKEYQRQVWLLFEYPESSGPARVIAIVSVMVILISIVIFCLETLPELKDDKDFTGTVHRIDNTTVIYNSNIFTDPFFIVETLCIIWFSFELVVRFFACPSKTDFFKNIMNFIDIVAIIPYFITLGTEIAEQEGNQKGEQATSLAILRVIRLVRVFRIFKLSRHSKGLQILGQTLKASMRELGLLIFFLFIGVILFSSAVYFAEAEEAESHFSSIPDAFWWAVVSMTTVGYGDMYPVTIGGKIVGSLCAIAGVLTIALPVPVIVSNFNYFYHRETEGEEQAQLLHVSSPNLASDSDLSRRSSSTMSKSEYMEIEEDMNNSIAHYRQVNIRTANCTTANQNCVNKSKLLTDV
- measurement_description: cell-based or functional assay
assay_readout: Kv1.1 IC50, QPatch patch clamp (nM)
# unit: nM | format: bare number

# lookup: Kv1.1 IC50, QPatch patch clamp of KB_A12_HsTx1 (antibody, V domains shown) VH: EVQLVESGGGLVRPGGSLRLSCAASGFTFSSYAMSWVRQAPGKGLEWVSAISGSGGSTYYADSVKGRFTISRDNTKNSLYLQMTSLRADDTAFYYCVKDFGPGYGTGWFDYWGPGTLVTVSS VL: NWYQQLPGKAPKLLIYAAGRASCRTPKDCADPCRKETGCPYGKCMNRKCKCNRCANSGVSDRFSAAKSGTSASLAINGLRSEDEADYYCAAWDDSLNGYVFGTGTKLTVLG 650

# lookup: Kv1.1 IC50, QPatch patch clamp of KB_A12_AnTx-N17A/F32T (antibody, V domains shown) VH: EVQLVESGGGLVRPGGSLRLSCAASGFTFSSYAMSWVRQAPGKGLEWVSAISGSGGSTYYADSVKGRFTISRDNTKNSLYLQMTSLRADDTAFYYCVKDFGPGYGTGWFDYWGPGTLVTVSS VL: QSVLTQPPSVSEAPRQRVTITCSGSSSNIGNNAVNWYQQLPGKAPKLLIYAAGRQKECTGPQHCTNFCRKAKCTHGKCMNRKCKCTNCKANSGVSDRFSAAKSGTSASLAINGLRSEDEADYYCAAWDDSLNGYVFGTGTKLTVLG 10300

# lookup: Kv1.1 IC50, QPatch patch clamp of KB_A12_HsTx1 R14A (antibody, V domains shown) VH: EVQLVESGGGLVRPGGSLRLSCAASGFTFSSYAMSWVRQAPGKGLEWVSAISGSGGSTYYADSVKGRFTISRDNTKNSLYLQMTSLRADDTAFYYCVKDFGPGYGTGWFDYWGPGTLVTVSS VL: NWYQQLPGKAPKLLIYAAGRASCRTPKDCADPCAKETGCPYGKCMNRKCKCNRCANSGVSDRFSAAKSGTSASLAINGLRSEDEADYYCAAWDDSLNGYVFGTGTKLTVLG 2990

# lookup: Kv1.1 IC50, QPatch patch clamp of KB_A12_Odk2 (antibody, V domains shown) VH: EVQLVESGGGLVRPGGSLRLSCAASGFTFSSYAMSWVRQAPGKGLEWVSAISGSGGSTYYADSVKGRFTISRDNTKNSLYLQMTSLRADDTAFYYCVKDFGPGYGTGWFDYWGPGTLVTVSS VL: QSVLTQPPSVSEAPRQRVTITCSGSSSNIGNNAVNWYQQLPGKAPKLLIYAAGRGVPTDVKCRGSPQCIQPCKDAGMRFGKCMNGKCHCTPKANSGVSDRFSAAKSGTSASLAINGLRSEDEADYYCAAWDDSLNGYVFGTGTKLTVLG 2750
